Value source: patent US20240116985A1

measurementTarget: T1, B-cat-Halo (beta-catenin HaloTag construct expressed in HEK293 cells) (UniProt P35222 1-781)
T1 sequence (looked up): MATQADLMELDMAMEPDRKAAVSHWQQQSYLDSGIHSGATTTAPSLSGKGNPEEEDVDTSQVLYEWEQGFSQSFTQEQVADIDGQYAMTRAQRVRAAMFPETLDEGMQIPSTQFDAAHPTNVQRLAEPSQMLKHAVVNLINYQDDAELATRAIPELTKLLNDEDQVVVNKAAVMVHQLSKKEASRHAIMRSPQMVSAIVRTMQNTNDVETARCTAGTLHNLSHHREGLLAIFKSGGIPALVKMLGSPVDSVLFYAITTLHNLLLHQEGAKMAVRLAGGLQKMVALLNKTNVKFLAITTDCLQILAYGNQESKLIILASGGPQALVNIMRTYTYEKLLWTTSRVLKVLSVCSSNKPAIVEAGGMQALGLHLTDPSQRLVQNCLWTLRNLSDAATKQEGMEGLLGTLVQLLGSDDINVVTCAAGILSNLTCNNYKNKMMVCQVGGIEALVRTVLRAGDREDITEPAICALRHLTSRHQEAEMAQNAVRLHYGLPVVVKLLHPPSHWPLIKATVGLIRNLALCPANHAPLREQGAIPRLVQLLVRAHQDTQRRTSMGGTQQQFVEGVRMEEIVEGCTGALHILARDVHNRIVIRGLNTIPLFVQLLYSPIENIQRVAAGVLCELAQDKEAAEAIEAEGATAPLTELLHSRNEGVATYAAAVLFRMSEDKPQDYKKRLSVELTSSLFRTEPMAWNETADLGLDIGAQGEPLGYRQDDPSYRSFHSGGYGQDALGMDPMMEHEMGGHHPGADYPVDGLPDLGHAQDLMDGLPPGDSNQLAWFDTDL
procedureSummary: cell-based or functional assay
Starred links: 1 amine or outer side, 2 acyl side, 3 side chain; linkers in the order of their positions; H or OH if unused. Positions of bridges follow the written chain, without caps; N, C: chain ends. Non-standard residues stand in square brackets, D forms with d. Primed or numbered codes have the meaning given here. PyrS2″ = (S)-3-amino-1-((pent-4-en-1-yloxy)carbonyl)pyrrolidine-3-carboxylic acid (stapling residue), C=CCCCOC(=O)N1CC[C@@](N[*:1])(C(=O)[*:2])C1; B5(3) = 2,2-bis(4-pentenyl)glycine (stitching residue), C=CCCCC(CCCC=C)(N[*:1])C(=O)[*:2]; B5 = 2-amino-2-(pent-4-en-1-yl)hept-6-enoic acid, C=CCCCC(CCCC=C)(N[*:1])C(=O)[*:2]; Bta = N[C@@H](Cc1csc2ccccc12)C(=O)O; αAllylPro = C=CC[C@@]1(C(=O)O)CCCN1; tBuAla = CC(C)(C)C[C@H](N)C(=O)O; 3Thi = N[C@@H](Cc1ccsc1)C(=O)O; hSer = N[C@@H](CCO)C(=O)O
NanoBRET Abs IC50 listing for selected binders.
All answers are understood in µM, so give the number only.

Consider the following illustrative entries.
>  <binder>
Ac-[αAllylPro]D[tBuAla][B5]DDAAFN[PyrS2″][3Thi][Bta]N-NH2 (staple 1-4, 4-11) [I-816]

>  <NanoBRET Abs IC50 [µM]>
13.7

$$$$
>  <binder>
Ac-[αAllylPro]D[tBuAla][B5(3)]DDAAFT[PyrS2″][3Thi][Bta]H-NH2 (staple 1-4, 4-11) [I-810]

>  <NanoBRET Abs IC50 [µM]>
18

$$$$
>  <binder>
Ac-[αAllylPro]D[tBuAla][B5(3)]DDAAFT[PyrS2″][3Thi][Bta]Q-NH2 (staple 1-4, 4-11) [I-809]

>  <NanoBRET Abs IC50 [µM]>
6.1

$$$$
>  <binder>
Ac-[αAllylPro]D[tBuAla][B5]DDAAFN[PyrS2″][3Thi][Bta]T-NH2 (staple 1-4, 4-11) [I-814]

>  <NanoBRET Abs IC50 [µM]>
18.9

$$$$

Lookup: Return reported NanoBRET Abs IC50; argument: Ac-[αAllylPro]D[tBuAla][B5(3)]DDAAF[hSer][PyrS2″][3Thi][Bta]H-NH2 (staple 1-4, 4-11) [I-804]
Found: 13.5
